Source of measurements: patent US20210145804A1

Assay: KAR-001 Phase I study: xanomeline and trospium plasma pharmacokinetics
Format: in vivo, human
Settings: human, in vivo; KAR-001 Day 1, 20 mg trospium BID lead-in, geometric mean; read-out: Trospium AUC0-tau
RECORDED_METRIC: AUC (ng·h/mL)
Dear colleague, please return just the value in ng·h/mL, with no unit written.

Any idea what its AUC is? The molecule is O=C(O[C@H]1C[C@H]2CC[C@@H](C1)[N+]21CCCC1)C(O)(c1ccccc1)c1ccccc1 [trospium alone, trospium chloride]
5.03

* * *

Test: KAR-001 Phase I study: xanomeline and trospium plasma pharmacokinetics
Type: in vivo, human
Conditions: human, in vivo; KAR-001 Day 1, 20 mg trospium BID lead-in, geometric mean
RECORDED_METRIC: Cmax (ng/mL)
Dear colleague, please return just the value in ng/mL, with no unit written.

Any idea what its Cmax is? The compound is O=C(O[C@H]1C[C@H]2CC[C@@H](C1)[N+]21CCCC1)C(O)(c1ccccc1)c1ccccc1 [trospium alone, trospium chloride]
0.722

* * *

Assay: KAR-001 Phase I study: xanomeline and trospium plasma pharmacokinetics
Type: in vivo, human
Settings: human, in vivo; KAR-001 Day 1, 20 mg trospium BID lead-in, geometric mean; read-out: Trospium AUC0-inf
RECORDED_METRIC: AUC(0-inf)
In your response, put the unit directly after the numeric value.

Any idea what its AUC(0-inf) is? The molecule is O=C(O[C@H]1C[C@H]2CC[C@@H](C1)[N+]21CCCC1)C(O)(c1ccccc1)c1ccccc1 [trospium alone, trospium chloride]
7.79 ng·h/mL
